# Test system: OVCAR-3 ovarian
# assayMethodText: NCI tumour cell line growth inhibition, 48 h
experimentalReadout: TGI (µM)
Write the number in µM without appending the unit.

Query for OVCAR-3 ovarian: what TGI does the record show for CC[C@H](Nc1nc(N)nc(C)c1C#N)c1nc2cccc(CN(C)c3ncc(C(=O)NO)cn3)c2c(=O)n1-c1ccccc1 ?
2.28

Query for OVCAR-3 ovarian: what TGI does the record show for O=C(CCN1CCCC1)Nc1ccc2c(NCc3ccc(F)cc3)c3ccccc3nc2c1 ?
1.92

====

Assignment: determine reported TGI for the given molecules.
# Test system: NCI/ADR-RES ovarian
# assayMethodText: NCI tumour cell line growth inhibition, 48 h
Write the number in µM without appending the unit.

Recorded TGI of COC(=O)N1C[C@@]2(C=CC3(CC2)OCCO3)c2ccccc21 , please.
95.6

Recorded TGI of COc1ccc(/C=C2/C(C)=NN(c3cccc(Cl)c3)/C2=N/c2nc3ccccc3s2)cc1 , please.
71.6

Recorded TGI of Cc1nc2sc(CCl)nn2c(=O)c1Cl , please.
50.8

Recorded TGI of CCc1c(C)[nH]c(/C=C2\N=C(c3ccc[nH]3)C=C2OC)c1C , please.
6.42

====

# System: SNB-75 CNS
# assayMethodText: NCI tumour cell line growth inhibition, 48 h; in the data active = GI50 below about 0.43 µM; inactive = the rest
Your reply should match one of these outcome classes. True = active, False = inactive

Assay outcome for CN(C)c1ccc2nc3ccc(=[N+](C)C)cc-3oc2c1 : what was it?
False

Assay outcome for N#CC(C#N)=CN1CCN(C(=O)c2ccco2)C1=S : what was it?
False

Assay outcome for O=C1C(Cl)=C(N/N=c2/[nH][nH]/c(=N/NC3=C(Cl)C(=O)c4ccccc4C3=O)c3ccccc23)C(=O)c2ccccc21 : what was it?
False

Assay outcome for O=C(CCl)c1ccc([N+](=O)[O-])o1 : what was it?
False

Assay outcome for N#CC(C#N)=Cc1ccc(-c2ccc(-c3nc4ccccc4s3)cc2)o1 : what was it?
False

Assay outcome for Cc1ccc2[nH]c(C(=O)NN3C(=O)CSC34CCCCC4C)c(-c3ccccc3)c2c1 (stereo not drawn) : what was it?
False

Assay outcome for COc1ccc2c(c1)CC[C@@H]1[C@@H]2CC[C@]2(C)C(=O)C3(CCCCC3)C[C@@H]12 : what was it?
False

Assay outcome for CCOC(=O)Cc1c[nH]c(=S)[nH]c1=O : what was it?
False

Assay outcome for O=S(=O)(c1ccc(NC(=S)NCc2cccnc2)cc1)N1CCCCC1 : what was it?
False

Assay outcome for CC[C@](C)(O)C(=O)O[C@H]1C(=O)O[C@@H]2C[C@H]3C(C)=CC(=O)[C@@H](O)[C@]3(C)[C@H]3[C@@]4(O)OC[C@]32[C@@H]1[C@@H](C)[C@H]4O : what was it?
True

Assay outcome for CC12CCC(=O)C(O1)C1C(=O)c3cc4ccccc4cc3C(=O)C12 (stereo not drawn) : what was it?
False

Assay outcome for COc1cc2cc(C(=O)N3CC(CCl)c4c3cc(NC(=O)C(C)(C)c3ccccc3[N+](=O)[O-])c3ccccc43)[nH]c2c(OC)c1OC (stereo not drawn) : what was it?
False

Assay outcome for COc1cc2cc(Oc3ccc(NC(=O)Nc4ccc(Cl)c(C(F)(F)F)c4)cc3)c(C)nc2cc1OCCN1CCCCC1 : what was it?
False

Assay outcome for CC(=O)[O][Pb]([O]C(C)=O)([c]1ccccc1)[c]1ccccc1 : what was it?
False

Assay outcome for CC[C@H](Nc1nc(N)nc(C)c1C#N)c1nc2cccc(CN(C)c3ncc(C(=O)NO)cn3)c2c(=O)n1-c1ccccc1 : what was it?
True

Assay outcome for O=C1C2C(C(=O)N1c1ccc(OCc3ccccc3)cc1)C1c3ccccc3C2C2CCCCN21 (stereo not drawn) : what was it?
False

Assay outcome for CCN(CC)CCOc1ccc(C(=C(C)c2ccc(Cl)cc2)c2ccc(OCCN(CC)CC)cc2)cc1 : what was it?
True

Assay outcome for CCN1C(=O)N(CC)C2C1NN=c1s/c(=C3\C(=O)N(C(C)C)c4ccccc43)c(=O)n12 (stereo not drawn) : what was it?
True

====

# Tested on: HOP-62 NSCLC
# assayMethodText: NCI tumour cell line growth inhibition, 48 h
experimentalReadout: TGI

Recorded TGI of CC(C)(O)c1ccc(N2CCN(c3nnc(Cc4ccccc4)c4ccccc34)CC2)nc1 , please.
28.6 µM

Recorded TGI of C=C(c1ccccc1)C1ON(C)CCc2cc(OC)c(OC)cc21 (stereo not drawn) , please.
> 100 µM

Recorded TGI of COc1ccc2c(c1)CC[C@@H]1[C@@H]2CC[C@]2(C)C(=O)C3(CCCCC3)C[C@@H]12 , please.
> 100 µM

Recorded TGI of N#CSc1ncnc2nc[nH]c12 , please.
> 100 µM

Recorded TGI of CCOC(=O)c1ccc(C(=O)OCC)n1-c1cc2cc(c1)CSCc1cc(cc(-n3c(C(=O)OCC)ccc3C(=O)OCC)c1)CSC2 , please.
> 10 µM

Recorded TGI of COc1cc(S(=O)(=O)Nc2ccc(-c3csc(N4C(=O)CSC4c4cccs4)n3)cc2)ccc1Cl (stereo not drawn) , please.
> 100 µM

Recorded TGI of O=C(O)C1C(C(=O)O)C2C(=O)C=CC1N2Cc1ccccc1 (stereo not drawn) , please.
10.5 µM

Recorded TGI of CCOC(=O)/C(C)=C\[C@@]1(C)O[C@@H](C)[C@@](C)(OC(C)=O)[C@@H]1OC(C)=O , please.
> 100 µM

Recorded TGI of CC1=NC(=O)C(C)(c2ccccc2)N1CCc1ccccc1 (stereo not drawn) , please.
> 100 µM

Recorded TGI of COc1cc(Br)c(OC)c2c(OC)cc(C)cc12 , please.
> 100 µM

Recorded TGI of CC1=CC(=O)c2c(O)cccc2C1=O , please.
17.6 µM

Recorded TGI of O=C(NO)c1ccc([N+](=O)[O-])cc1 , please.
> 100 µM

Recorded TGI of C[C@@]12C=CC3C/C(=N\C(N)=S)C=C(CCCC4OCCO4)[C@]3(CC1)C2 (stereo partly drawn) , please.
92.3 µM

Recorded TGI of COc1cc(Cn2cc3c(c2)-c2oncc2CC3)cc(OC)c1OC , please.
> 100 µM

Recorded TGI of NC(=O)c1cc2ccccc2oc1=Nc1ccccc1 , please.
> 100 µM

Recorded TGI of NC1CC(=O)c2cc(Cl)sc21 (stereo not drawn) , please.
> 100 µM

Recorded TGI of O=C(CCl)c1ccc([N+](=O)[O-])o1 , please.
17.6 µM

Recorded TGI of Cc1nc2sc(CCl)nn2c(=O)c1Cl , please.
32.1 µM

Recorded TGI of NCCCCNCCCN1CC1 , please.
5.83 µM

Recorded TGI of O=C(NC(C(F)(F)F)(C(F)(F)F)P(=O)(c1ccccc1)c1ccccc1)C(C(F)(F)F)C(F)(F)F , please.
> 100 µM

Recorded TGI of O=c1c2cc(S(=O)(=O)Nc3ccccc3Cl)ccc2ncn1NS(=O)(=O)c1ccc(Br)cc1 , please.
> 37.5 µM

Recorded TGI of CCOC(=O)/C(N=Nc1ccc(-n2c(C)nc3ccccc3c2=O)cc1)=C(/C)O , please.
> 100 µM

Recorded TGI of CSC1=N[C@H](c2ccccc2)CS1 , please.
> 100 µM

====

# System: K-562 leukemia
# assayMethodText: NCI tumour cell line growth inhibition, 48 h; in the data active means GI50 below about 0.43 µM; inactive means the rest
Where a SMILES comes first, the peptide text is derived from it. [ ]: non-standard residue; d: D form. Phe(F5) = N[CH](Cc1c(F)c(F)c(F)c(F)c1F)C(=O)O
Your reply should match one of these outcome classes. true for active, false for inactive

Assay outcome for COc1ccc2c(c1)CC[C@@H]1[C@@H]2CC[C@]2(C)C(=O)C3(CCCCC3)C[C@@H]12 : what was it?
false

Assay outcome for COC(=O)C(CC(C)C)NC(=O)C(Cc1cnc[nH]1)NC(=O)CNC(=O)C(NC(=O)C(C)NC(=O)C(Cc1c[nH]c2ccccc12)NC(=O)C(CCC(=O)O)NC(=O)C(N)Cc1c(F)c(F)c(F)c(F)c1F)C(C)C (stereo not drawn) (H-[Phe(F5)]EWAVGHL-OMe; configuration not given here) : what was it?
false

Assay outcome for CCN1C(=O)N(CC)C2C1NN=c1s/c(=C3\C(=O)N(C(C)C)c4ccccc43)c(=O)n12 (stereo not drawn) : what was it?
true

Assay outcome for COc1cccc(C2=C(c3cn(C)c4ccccc34)C(=O)NC2=O)c1 : what was it?
false

Assay outcome for N#CC(C#N)=CN1CCN(C(=O)c2ccco2)C1=S : what was it?
false

Assay outcome for CC1=C(C(=O)OCc2ccccc2)C(c2ccc3c(c2)OCO3)n2c(nc3ccccc32)N1 (stereo not drawn) : what was it?
true

Assay outcome for Cc1ccc2[nH]c(C(=O)NN3C(=O)CSC34CCCCC4C)c(-c3ccccc3)c2c1 (stereo not drawn) : what was it?
false

Assay outcome for O=C1C2C(C(=O)N1c1ccc(OCc3ccccc3)cc1)C1c3ccccc3C2C2CCCCN21 (stereo not drawn) : what was it?
false
